readout.label: melting point

O=C(CCl)Nc1csc(NC(=O)CCl)n1 :: 188 to 192 °C
OCc1nccc(N2CCOCC2)n1 :: 76 to 78 °C
CC(C)CC(=O)Nc1ccc2oc3c(c2c1)CCCCC3 :: 162 to 163 °C
Fc1ccc(-c2ncn(C3CCNCC3)c2-c2ccnc(Oc3cccc(C(F)(F)F)c3)n2)cc1 :: 137 to 138 °C
O=C1NC2(CCCc3sccc32)c2ccccc21 (stereo unspecified) :: 224 to 226 °C
O=c1[nH]c(-n2cccn2)nc2ccccc12 :: 148 to 150 °C
CC12CCC(=O)C=C1CCC1C2CCC2(C)C(c3cccnc3)=CCC12 (stereo unspecified) :: 148 to 150 °C
CN(C)C=C(C1=NCCCS1)[N+](=O)[O-] :: 168 to 170 °C
CC(Oc1cccc(Oc2c(Cl)cc(C(F)(F)F)cc2Cl)c1)(C(=O)O)[N+](=O)[O-] (stereo unspecified) :: 146 °C
COCCOc1cc(OCCN2CCCC2)c2c(=O)[nH]c(-c3cc(C)nc(C)c3)nc2c1 :: 60.4 to 62.3 °C

IN: Tell me the measured melting point of CCCCN(CC1Cc2cc(Cl)cc(Cl)c2O1)C(=O)n1cncn1 (stereo unspecified) , please.
OUT: 122 to 124 °C

IN: Quick one: `O=C(O)Cc1c(-c2ccccc2)nn(-c2cccnc2)c1-c1ccccc1`
OUT: 185 to 187 °C

IN: Quick one: O=CN1CC2CC2(c2ccc(O)cc2)C1 (stereo unspecified)
OUT: 166 to 167 °C

IN: Quick one: `N=C(N)Cc1ccccc1-n1cnc2cnc3ccc(-c4ccccc4)cc3c21`
OUT: 261 to 263 °C

IN: Quick one: `CC(=O)c1ccc2c(c1)CN(C(=O)C(F)(F)F)CC2`
OUT: 80 °C

IN: Quick one: `O=C(NCCc1ccc(Cl)cc1)c1c(Cl)ccc2nc(N3CCC(C(=O)O)CC3)ccc12`
OUT: 231 to 234 °C

IN: Quick one: `COC(=O)CCCNS(=O)(=O)c1ccc2ccccc2c1`
OUT: 123 to 125 °C

IN: Quick one: `COc1cc(C(C)C)c(Oc2cnc(NC(=O)CNC3CCCC3)nc2N)cc1I`
OUT: 176 to 178 °C

IN: Quick one: `C=CCc1cccc(-c2nc3n(C4CCCC4)[nH]c(CC)c-3c(=O)n2)c1O`
OUT: > 280 °C

IN: Quick one: `CCc1cc(C#N)ccc1Nc1c(N[C@H](C)C(C)(C)C)c(=O)c1=O`
OUT: 235 to 237 °C

IN: Quick one: `CCNc1nc(CC)c(C(=O)c2ccc(N)c([N+](=O)[O-])c2)s1`
OUT: 210 to 212 °C

====

readout.label: melting point

The following molecules have reported results that may help.
CN(c1ccccc1)c1ncccc1NC(=O)c1ccccc1F :: 84 to 86 °C
COc1ccccc1-n1c(=O)[nH]c2c(C(N)=O)nc(-c3cccc(C(F)(F)F)c3)nc21 :: 271 to 275 °C
OCCCNc1nc(-c2ccc(Cl)c(Cl)c2)nc2ccccc12 :: 164 to 166 °C
O=C(Cc1ccccc1)N1CCC2(Cc3ccccc3O2)C1 (centres undefined) :: 98 to 99 °C

IN: Tell me the measured melting point of `CCOC(=O)c1cn(Cc2ccc(OCc3nc(-c4ccco4)oc3C)cc2)nc1OCc1ccc(OCc2nc(-c3ccco3)oc2C)cc1` , please.
OUT: 133 to 134 °C

IN: Quick one: `COc1cc(C)ccc1-c1nc(C)c(-c2cccnc2)n1O`
OUT: 75 to 80 °C

====

# melting point annotations

The following molecules have reported results that may help.
O=C1CCC(C(=O)Nc2ccccc2C(=O)c2ccccc2)O1 (stereo not given) :: 100 to 102 °C
CNC(=O)C1=CC(CF)(CF)Oc2ccc([N+](=O)[O-])cc21 :: 178 to 179 °C
Clc1ccc(C(Cn2ccnc2)OCc2cc(Cl)nc3ccccc23)c(Cl)c1 (stereo not given) :: 180 to 181 °C

IN: Tell me the measured melting point of `CC(C)c1ccc(NN)c(Cl)c1` , please.
OUT: 64 to 66 °C

====

# melting point annotations

CC1=CC(O)C(OC(=O)c2ccco2)C(C)(C)CC1=O (configuration not stated) :: 102 to 104 °C
CCCC(=O)NCC1Cc2cccc3cccc1c23 (configuration not stated) :: 111 °C
O=CN1CCC(=C2c3ccc(Cl)cc3CCc3cccnc32)CC1 :: 147 to 149 °C
CN(CCN1CCC(=C(c2ccccc2)c2ccccc2)CC1)c1ncccn1 :: 98 to 100 °C
COc1ccc(/C=C/CCCCO)cc1 :: 66 °C
COC(=O)c1c(C(=O)OC)c(-c2ccc(Cl)cc2)n2c1Cc1c(n(C)c3ccccc13)C2 :: 264 to 265 °C

IN: Tell me the measured melting point of `CC(C)N(Cc1ccccc1)C(=O)C(=O)N1CCN(c2ccccc2C(C)(C)C)CC1` , please.
OUT: 65 to 68 °C

====

# melting point annotations

The following compounds have reported results that may help.
C=CCN1CCN(C(=O)Cn2sc3ccccc3c2=O)CC1 :: 119 to 120 °C
COC(=O)CCc1ccc(N2C(=O)CN(c3ccc(C(=N)NC(=O)OC)cc3)C2=O)cc1 :: 250 °C
CCOc1cc(Cc2ccccn2)ccc1CCCOc1c(CC(=O)O)cccc1OC :: 97.5 to 98.5 °C
O=C1C(=Cc2ccc(Cl)s2)CCc2cc(OCCn3ccnc3)ccc21 :: 143 to 144 °C

Turning to the following compound.
IN: Tell me the measured melting point of `NC(=O)c1sc2nccc(N3CCCN(c4ccc(OCc5ccccc5)cc4)CC3)c2c1N` , please.
OUT: 211 to 213 °C

====

# melting point annotations

The following molecules have reported results that may help.
O=C(Nc1ccccc1)NC1CCCCC1 :: 164 °C
COC(=O)c1cc(Cl)cc(C=O)c1O :: 132 to 134 °C
c1cc(N=Nc2ccncc2)ccn1 :: 87 to 89 °C
CNS(=O)(=O)c1cccc(-c2cnc3[nH]cc(C(=O)C(C)(C)C)c3n2)c1 :: 245 to 247 °C
CS(=O)(=O)C(c1ccc(Cl)cc1)c1ccc(Cl)cc1 :: 93 to 94.5 °C

IN: Tell me the measured melting point of `CC(C)=CCCNC(=S)Nc1nc(C)cs1` , please.
OUT: 164 to 166 °C

IN: Quick one: `O=[N+]([O-])c1ccccc1/C=C/c1ccccc1[N+](=O)[O-]`
OUT: 195 to 196 °C

====

# melting point annotations

CCCc1nn(-c2ccc(C(F)(F)F)cn2)cc1CCCOc1ccc(CC(=O)O)c(C)c1 :: 134 to 135 °C
CC(=O)Nc1nnc(C(F)(F)C(Cl)Cl)s1 :: 182 to 184 °C
CC(=O)NC[C@H]1CN(c2cc(F)c(N3CCC(Cc4noc(-c5ccccc5)n4)CC3)c(F)c2)C(=O)O1 :: 152 to 154 °C
CN(C)CC(O)CC1(O)c2ccccc2CCc2ccccc21 (stereo unspecified) :: 144 to 146 °C
Nc1ccc(C(=S)OC2CCCCC2)c(Cl)c1 :: 97 to 100 °C

IN: Tell me the measured melting point of `Cc1ccc(-c2nsc3ccccc23)cc1` , please.
OUT: 56 °C

IN: Quick one: CC(C)C[C@H](NC(=O)C(S)[C@@H](N)Cc1ccccc1)C(=O)O (stereo partly specified)
OUT: 96 to 105 °C

IN: Quick one: `O=C1CSCN1CCCCN1CCN(c2ccc3ccccc3n2)CC1`
OUT: 105 to 107 °C

IN: Quick one: `O=C(O)Cc1c(Cl)nc(-c2ccccc2)n1Cc1ccccc1F`
OUT: 144 to 146 °C

IN: Quick one: `COC(C)=CC(=O)NC1(C)CCCCC1`
OUT: 105 °C

IN: Quick one: `O=c1cc(C=Cc2ccccc2)oc2ccc(O)cc12`
OUT: 230 °C

====

# melting point annotations

The following molecules have reported results that may help.
Cc1cccc(C(=O)NCN2CCN(c3ccccn3)CC2)c1 :: 141 to 143 °C
CN1CCCCC1CCCc1ccccc1NC(=O)C=Cc1ccccc1 (centres undefined) :: 130 to 132 °C
COC(=O)c1cc(N2CCCC2)c(Oc2cc(C)cc(C)c2)c(S(N)(=O)=O)c1 :: 208 to 209 °C
COC(=O)c1ccccc1CS(=O)(=O)NC(=S)Nc1nc(OC)cc(OC)n1 :: 167 to 168 °C

Turning to the following molecule.
IN: Tell me the measured melting point of `Cc1c(SCCCN2CCN(Cc3ccncc3)CC2)ccnc1CNc1cnc2ccccc2c1` , please.
OUT: 145 to 150 °C

====

readout.label: melting point

CN(O)C(=O)c1ccccc1 :: < 20 °C
CC(C)c1ccc(N(Cc2cnn(C3CCCC3)c2)C(=O)C2CCCc3c(O)cccc32)cc1 (stereo not given) :: 173 °C
O=[N+]([O-])C=C1C2CC3CC(C2)CC1C3 :: 78 to 81 °C
Cc1ccc(NC(=O)N2C(=O)C3(CCCCC3)NC23CCCCC3)cc1 :: 136 to 138 °C
CC(=O)N1C(=O)N(c2cc(Cl)cc(Cl)c2)C(=O)C1=Cc1ccc(C#N)cc1 :: 212 °C
CCCCCCCCCCCCc1nc(NC(=O)Nc2c(C(C)C)cccc2C(C)C)n[nH]1 :: 154 to 164 °C
O=C(Nc1ccc(-c2ccccc2)s1)C1CCCCC1 :: 174 °C
Cc1cc([N+](=O)[O-])cc(C(=O)NC(C)C)c1NC(=O)c1cc(C(F)(F)F)nn1-c1ncccc1Cl :: 170 to 172 °C

IN: Tell me the measured melting point of `CCCCC[C@@H](CNC(=O)Nc1c(OC(C)C)c(C)nn1C)c1cccc2c1OCO2` , please.
OUT: 123 to 124 °C
